# Subject of test: Tyrosine-protein kinase JAK2 (Homo sapiens)
# Sequence (O60674 whole entry): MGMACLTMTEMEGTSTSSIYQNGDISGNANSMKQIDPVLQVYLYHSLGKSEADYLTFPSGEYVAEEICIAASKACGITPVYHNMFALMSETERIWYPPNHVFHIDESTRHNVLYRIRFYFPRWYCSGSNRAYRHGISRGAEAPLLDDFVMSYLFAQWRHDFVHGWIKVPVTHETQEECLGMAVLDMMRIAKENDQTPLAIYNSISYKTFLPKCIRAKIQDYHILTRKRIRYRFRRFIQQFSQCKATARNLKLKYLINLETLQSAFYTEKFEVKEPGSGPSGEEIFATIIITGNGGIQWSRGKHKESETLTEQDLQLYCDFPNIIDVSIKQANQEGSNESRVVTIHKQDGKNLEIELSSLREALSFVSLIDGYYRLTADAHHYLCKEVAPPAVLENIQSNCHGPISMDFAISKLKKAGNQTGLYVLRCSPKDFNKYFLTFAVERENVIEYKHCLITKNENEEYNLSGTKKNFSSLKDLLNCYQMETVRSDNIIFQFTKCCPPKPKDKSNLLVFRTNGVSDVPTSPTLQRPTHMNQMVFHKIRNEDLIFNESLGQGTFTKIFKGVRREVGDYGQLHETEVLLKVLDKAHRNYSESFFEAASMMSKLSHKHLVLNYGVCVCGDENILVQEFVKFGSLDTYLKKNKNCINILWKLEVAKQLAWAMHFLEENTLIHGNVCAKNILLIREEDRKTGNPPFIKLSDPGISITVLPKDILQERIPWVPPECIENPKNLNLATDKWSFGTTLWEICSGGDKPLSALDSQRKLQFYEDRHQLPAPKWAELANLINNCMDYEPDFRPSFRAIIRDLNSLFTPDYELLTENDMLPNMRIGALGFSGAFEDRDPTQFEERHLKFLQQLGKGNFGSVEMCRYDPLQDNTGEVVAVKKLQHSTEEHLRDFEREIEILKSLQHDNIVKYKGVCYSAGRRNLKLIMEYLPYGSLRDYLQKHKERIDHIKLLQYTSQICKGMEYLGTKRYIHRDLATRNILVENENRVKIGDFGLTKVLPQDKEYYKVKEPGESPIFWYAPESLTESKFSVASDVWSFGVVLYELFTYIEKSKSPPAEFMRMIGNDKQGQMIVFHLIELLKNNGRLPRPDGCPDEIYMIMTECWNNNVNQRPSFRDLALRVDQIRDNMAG
Threshold-based label: IC50 under 1000 nM gives Yes, IC50 not under 1000 nM gives No.

Example entries and their recorded answers appear below.
{"columns": ["Chem smiles", "Subject of test", "Classification"],
 "data": [
  ["C[C@H](N)C(=O)Nc1ccc(-c2ccnc(Nc3ccc(N4CCOCC4)cc3)n2)cc1", "Tyrosine-protein kinase JAK2 (Homo sapiens)", "No"],
  ["CCN1CCC[C@@H]1C(=O)Nc1ccc(-c2ccnc(Nc3ccc(N4CCOCC4)cc3)n2)cc1", "Tyrosine-protein kinase JAK2 (Homo sapiens)", "No"],
  ["O=C(Nc1ccc(-c2ccnc(Nc3ccc(N4CCOCC4)cc3)n2)cc1)[C@H]1CCNC1", "Tyrosine-protein kinase JAK2 (Homo sapiens)", "No"],
  ["O=C1CC[C@H](C(=O)Nc2ccc(-c3ccnc(Nc4ccc(N5CCOCC5)cc4)n3)cc2)N1", "Tyrosine-protein kinase JAK2 (Homo sapiens)", "No"],
  ["CC(=O)Nc1ccc(-c2nc(Nc3ccc(N4CCOCC4)cc3)ncc2F)cc1", "Tyrosine-protein kinase JAK2 (Homo sapiens)", "No"]
]}

## Input Quick check: does CC(=O)Nc1ccc(-c2nc(Nc3ccc(N4CCOCC4)cc3)ncc2C(F)(F)F)cc1 have IC50 under 1000 nM?
## Output No

## Input Hello, I'm reviewing records and need to know if IC50 of CC(=O)Nc1ccc(-c2ccnc(Nc3cccc(N4CCOCC4)c3)n2)cc1 is below 1000 nM. Could you check?
## Output Yes

## Input State whether 1000 nM exceeds IC50 recorded for C[C@@H](N)C(=O)Nc1ccc(-c2ccnc(Nc3ccc(N4CCOCC4)cc3)n2)cc1 .
## Output Yes

###

# Assay: Kinetic solubility of the compound
# Assay type: physicochemical
# Stated conditions: read-out: Kinetic_solubility
Readout kind: solubility kinetic (µM)
Respond with the bare value in µM.

{"columns": ["Chem smiles", "solubility kinetic / µM"],
 "data": [
  ["CC(=O)Nc1ccc(-c2ccnc(Nc3ccccc3)n2)cc1", 234]
]}

response.value for CC(=O)Nc1ccc(-c2ccnc(NCCCNC(=O)c3c(Cl)cccc3Cl)n2)cc1 (field: solubility kinetic) = 6.5

###

# Subject of test: Mitogen-activated protein kinase kinase kinase 9 (Homo sapiens)
# Sequence (P80192 whole entry): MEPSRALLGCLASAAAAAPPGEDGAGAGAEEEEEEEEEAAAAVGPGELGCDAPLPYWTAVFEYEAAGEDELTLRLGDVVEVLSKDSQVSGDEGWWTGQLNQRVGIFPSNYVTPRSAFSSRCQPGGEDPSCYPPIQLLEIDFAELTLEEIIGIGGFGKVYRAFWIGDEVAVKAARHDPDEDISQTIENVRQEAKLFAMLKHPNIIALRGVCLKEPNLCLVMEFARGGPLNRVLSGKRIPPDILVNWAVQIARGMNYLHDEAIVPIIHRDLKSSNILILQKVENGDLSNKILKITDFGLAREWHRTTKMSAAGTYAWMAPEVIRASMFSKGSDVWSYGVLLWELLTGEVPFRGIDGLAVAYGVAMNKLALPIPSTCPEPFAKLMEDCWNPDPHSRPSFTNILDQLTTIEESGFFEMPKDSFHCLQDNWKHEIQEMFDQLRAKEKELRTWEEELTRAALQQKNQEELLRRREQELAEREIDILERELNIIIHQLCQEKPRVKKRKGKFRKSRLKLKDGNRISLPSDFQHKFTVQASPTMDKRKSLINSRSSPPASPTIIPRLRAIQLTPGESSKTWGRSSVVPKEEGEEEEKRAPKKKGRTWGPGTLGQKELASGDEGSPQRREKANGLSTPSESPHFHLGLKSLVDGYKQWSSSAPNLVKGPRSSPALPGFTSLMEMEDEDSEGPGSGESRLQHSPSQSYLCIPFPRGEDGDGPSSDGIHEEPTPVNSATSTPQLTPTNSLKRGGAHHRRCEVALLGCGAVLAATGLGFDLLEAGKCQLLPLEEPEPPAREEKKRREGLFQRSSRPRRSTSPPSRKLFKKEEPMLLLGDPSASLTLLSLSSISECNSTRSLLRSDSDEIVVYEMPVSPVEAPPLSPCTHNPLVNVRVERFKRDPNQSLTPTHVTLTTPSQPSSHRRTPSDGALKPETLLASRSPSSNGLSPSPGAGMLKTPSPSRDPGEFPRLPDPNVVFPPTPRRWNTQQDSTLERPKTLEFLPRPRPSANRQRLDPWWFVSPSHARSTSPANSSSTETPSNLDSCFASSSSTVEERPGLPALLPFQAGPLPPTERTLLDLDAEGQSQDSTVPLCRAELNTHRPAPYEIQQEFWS
# Assay: Inhibition of MLK1
Readout kind: pIC50
Conceptually, pIC50 converts a concentration in mol/L into minus its log10.

In plain terms, O=C(Nc1ccc(-c2ccnc(Nc3ccc(N4CCOCC4)cc3)n2)cc1)[C@H]1CCCN1 has a documented pIC50 of 6.43

###

# Assay: Drug uptake in nude mouse xenografted with HEL 92.1.7 cells at 100 mg/kg, po after 4 hrs
# Assay type: ADME, organism-based
# Parameters: dose 100 mg/kg, route oral
# Stated conditions: in vivo, read-out: Drug uptake
Readout kind: concentration at 4 h (µM)
Record the value in µM, omitting the unit from your answer.

Form field concentration at 4 h, entry O=C(Nc1ccc(-c2ccnc(Nc3ccc(N4CCOCC4)cc3)n2)cc1)[C@H]1CCCN1 : 240

###

# Assay: Oral bioavailability in athymic nude mouse at 10 mg/kg
# Assay type: ADME, organism-based
# Stated conditions: in vivo
Readout kind: bioavailability (%)
Please give a number only; it is taken to be in %.

Item: O=C(Nc1ccc(-c2ccnc(Nc3ccc(N4CCOCC4)cc3)n2)cc1)[C@H]1CCCN1 | bioavailability: 54.5
